Measurement record for Prostaglandin E2 receptor EP4 subtype (Homo sapiens); quantity recorded: pKi.
Worth noting: pKi values are minus log10 of concentrations stated in mol/L.

Past entries and their recorded results:
CCCC/C=C(C)/C=C\[C@H]1CCC(=O)N1CCc1ccc(C(=O)O)cc1
6.35
CCCC/C(C)=C\C=C\[C@H]1CCC(=O)N1CCc1ccc(C(=O)O)cc1
8.40
CC(C)=C/C=C/[C@H]1CCC(=O)N1CCc1ccc(C(=O)O)cc1
7.35

What pKi appears in the records for this compound with Prostaglandin E2 receptor EP4 subtype (Homo sapiens)? CCCC[C@H](O)/C=C/[C@H]1CCC(=O)N1CCc1ccc(C(=O)O)cc1 8.60

---

Target chain: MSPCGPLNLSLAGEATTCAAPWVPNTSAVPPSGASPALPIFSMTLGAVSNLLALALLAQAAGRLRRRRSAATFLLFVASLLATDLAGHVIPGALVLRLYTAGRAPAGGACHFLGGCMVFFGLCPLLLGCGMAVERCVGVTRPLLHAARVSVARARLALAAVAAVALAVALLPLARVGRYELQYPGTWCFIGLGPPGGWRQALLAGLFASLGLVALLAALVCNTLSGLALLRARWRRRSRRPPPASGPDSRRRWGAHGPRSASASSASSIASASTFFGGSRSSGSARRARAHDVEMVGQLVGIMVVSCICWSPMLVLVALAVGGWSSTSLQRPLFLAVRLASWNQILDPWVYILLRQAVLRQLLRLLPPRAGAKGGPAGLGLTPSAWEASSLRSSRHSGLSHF
measure-name: Ki (µM)
Write the value in µM as a bare number.

# get_value(readout='Ki', item= CCCC/C(C)=C\C=C\[C@H]1CCC(=O)N1CCc1ccc(C(=O)O)cc1 ) 10

---

What follows is a collection of Ki values obtained with Prostaglandin E2 receptor EP2 subtype (Homo sapiens, UniProt P43116).
Sequence (P43116 whole entry): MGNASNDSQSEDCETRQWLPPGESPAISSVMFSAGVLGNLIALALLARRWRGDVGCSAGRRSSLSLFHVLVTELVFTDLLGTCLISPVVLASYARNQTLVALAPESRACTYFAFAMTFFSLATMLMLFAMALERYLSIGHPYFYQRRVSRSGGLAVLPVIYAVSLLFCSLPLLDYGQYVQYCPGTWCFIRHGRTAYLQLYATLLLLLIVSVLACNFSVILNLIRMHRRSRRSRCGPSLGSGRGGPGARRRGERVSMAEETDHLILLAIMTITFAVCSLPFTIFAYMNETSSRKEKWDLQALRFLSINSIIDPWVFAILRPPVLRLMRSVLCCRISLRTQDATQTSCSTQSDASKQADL
Record the value in nM, omitting the unit from your answer.

The examples below pair each entry with its known result.
CCCC/C(C)=C/C=C/[C@H]1CCC(=O)N1CCc1ccc(C(=O)O)cc1
134
CCCC/C=C(C)/C=C/[C@H]1CCC(=O)N1CCc1ccc(C(=O)O)cc1
29
C/C(=C\C=C\[C@H]1CCC(=O)N1CCc1ccc(C(=O)O)cc1)c1ccccc1
749

Attention now shifts to the item below.
// lookup Ki | system=Prostaglandin E2 receptor EP2 subtype (Homo sapiens, UniProt P43116) | key= CCCC/C=C(C)/C=C\[C@H]1CCC(=O)N1CCc1ccc(C(=O)O)cc1 802

---

Target: Prostaglandin E2 receptor EP2 subtype (Homo sapiens, UniProt P43116)
Test: Agonist activity at EP2 receptor expressed in HEK293 cells assessed as cAMP accumulation
Items are presented alongside their recorded pEC50.
Quick note: pEC50 values are minus log10 of concentrations in mol/L.

CCCC/C=C\C=C\[C@H]1CCC(=O)N1CCc1ccc(C(=O)O)cc1
6.71

Give Prostaglandin E2 receptor EP2 subtype (Homo sapiens, UniProt P43116) pEC50 for CCCC/C(C)=C\C=C\[C@H]1CCC(=O)N1CCc1ccc(C(=O)O)cc1 7.46

Missing value: pEC50, Prostaglandin E2 receptor EP2 subtype (Homo sapiens, UniProt P43116), entry CCCC[C@H](O)/C=C/[C@H]1CCC(=O)N1CCc1ccc(C(=O)O)cc1 . Fill in? 7.80

Missing value: pEC50, Prostaglandin E2 receptor EP2 subtype (Homo sapiens, UniProt P43116), entry CCCC/C(C)=C/C=C/[C@H]1CCC(=O)N1CCc1ccc(C(=O)O)cc1 . Fill in? 6.65

---

Biological target: UniProt P35408
Assay: Agonist activity at EP4 receptor expressed in HEK293 cells assessed as cAMP accumulation
pEC50: −log10 of the molar value.
Where pEC50 equals or exceeds 9, the correct label is label 1; where it does not, the label is label 0.

CC(C)=C/C=C/[C@H]1CCC(=O)N1CCc1ccc(C(=O)O)cc1
label 0
CCCC/C=C\C=C\[C@H]1CCC(=O)N1CCc1ccc(C(=O)O)cc1
label 0
CCCC/C(C)=C/C=C/[C@H]1CCC(=O)N1CCc1ccc(C(=O)O)cc1
label 0

I'd appreciate it if you could say whether C/C(=C\C=C\[C@H]1CCC(=O)N1CCc1ccc(C(=O)O)cc1)c1ccccc1 has pEC50 at least equal to 9. label 1

Hello, I need to know if CCCC[C@H](O)/C=C/[C@H]1CCC(=O)N1CCc1ccc(C(=O)O)cc1 has measured pEC50 not below 9. Thanks! label 1

Given the entry CCCC/C(C)=C\C=C\[C@H]1CCC(=O)N1CCc1ccc(C(=O)O)cc1 , answer whether its pEC50 meets or surpasses 9. label 1

Decide: pEC50 of CC/C(C)=C\C=C\[C@H]1CCC(=O)N1CCc1ccc(C(=O)O)cc1 >= 9? label 0

---

Assay: Clearance in iv dosed rat
Assay type: ADME, organism-based
Conditions: in vivo
measure-name: clearance (mL/min/kg)
Respond numerically; units are mL/min/kg and should not be typed.

Which clearance is listed for CCCC/C(C)=C\C=C\[C@H]1CCC(=O)N1CCc1ccc(C(=O)O)cc1 ? 2.5
